Documented kon across a set of binders
# Target desc: T1, monomeric cynomolgus monkey CSF1R ectodomain protein (cynomolgus monkey, UniProt P07333 20-517 (human entry))
# T1 construct: also called monomeric cyno CSF1R; Cyno CSF1R
# T1 chain: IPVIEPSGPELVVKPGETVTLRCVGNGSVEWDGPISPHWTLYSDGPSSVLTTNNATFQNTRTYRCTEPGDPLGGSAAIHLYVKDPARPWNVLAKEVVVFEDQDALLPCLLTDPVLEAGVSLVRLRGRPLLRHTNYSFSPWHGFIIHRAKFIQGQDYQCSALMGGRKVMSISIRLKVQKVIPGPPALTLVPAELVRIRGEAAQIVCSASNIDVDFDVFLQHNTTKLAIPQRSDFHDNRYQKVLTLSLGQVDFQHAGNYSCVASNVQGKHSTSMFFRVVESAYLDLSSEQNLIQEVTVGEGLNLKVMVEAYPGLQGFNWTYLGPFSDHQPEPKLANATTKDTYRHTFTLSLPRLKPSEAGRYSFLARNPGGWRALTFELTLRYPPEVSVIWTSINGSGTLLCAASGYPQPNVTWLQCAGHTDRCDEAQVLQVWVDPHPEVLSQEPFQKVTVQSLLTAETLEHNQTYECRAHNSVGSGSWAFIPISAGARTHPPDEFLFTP
# Experiment summary: SPR Biacore, IgG captured, monomeric CSF1R analyte
Please respond with the number in M⁻¹ s⁻¹ and leave the unit unwritten.

Some binders with known kon results, for comparison:
q: Look up kon for this binder: MH20 (antibody, human IgG4, V domains shown, Deimmunized MH5 derivative, human IgG4(S228P)/Ckappa IgG) VH: QVQLVQSGAEVKKPGSSVKVSCKASGYTFSSSYMIWVRQAPGQGLEWMGDINPYNGGANYAQKFQGRVTITADESTSTAYMELSSLRSEDTAVYYCAREGPYFSNLYVMDYWGQGTLVTVSS VL: EIVLTQSPATLSLSPGERATLSCRASQSVSYEGENYLNWYQQKPGQAPRSLIYAASDRATGIPARFSGSGSGTDFTLTISSPEPEDFAVYYCQLSNEDLLTFGGGTKVEIK
a: 1.08e+06

q: Look up kon for this binder: humanized anti-CSF1R antibody 0301 (hu0301) (antibody, human IgG4, V domains shown, also called mAb-1) VH: QVQLVQSGAEVKKPGSSVKVSCKASGYTFTDNYMIWVRQAPGQGLEWMGDINPYNGGTTFNQKFKGRVTITADKSTSTAYMELSSLRSEDTAVYYCARESPYFSNLYVMDYWGQGTLVTVSS VL: EIVLTQSPATLSLSPGERATLSCKASQSVDYDGDNYMNWYQQKPGQAPRLLIYAASNLESGIPARFSGSGSGTDFTLTISSLEPEDFAVYYCHLSNEDLSTFGGGTKVEIK
a: 500000

More entries:
q: Look up kon for this binder: MH41 (antibody, human IgG4, V domains shown, Deimmunized MH5 derivative, human IgG4(S228P)/Ckappa IgG; also called MN41) VH: QVQLVQSGAEVKKPGSSVKVSCKASGYTFSSHYMIWVRQAPGQGLEWMGDINPYNGGANYAQKFQGRVTITADESTSTAYMELSSLRSEDTAVYYCAREGPYFSNLYVMDYWGRGTLVTVSS VL: EIVLTQSPATLSLSPGERATLSCRASQSVSYEGENYLNWYQQKPGQAPRLLIYAASNRATGIPARFSGSGSGTDFTLTISSPEPEDFAVYYCQLSNEDLLTFGGGTKVEIK
a: 666000

q: Look up kon for this binder: MH16 (antibody, human IgG4, V domains shown, Deimmunized MH5 derivative, human IgG4(S228P)/Ckappa IgG; also called mAb-5) VH: QVQLVQSGAEVKKPGSSVKVSCKASGYTFSSAYMIWVRQAPGQGLEWMGDINPYNGGANYAQKFQGRVTITADESTSTAYMELSSLRSEDTAVYYCAREGPYFSNLYVMDYWGQGTLVTVSS VL: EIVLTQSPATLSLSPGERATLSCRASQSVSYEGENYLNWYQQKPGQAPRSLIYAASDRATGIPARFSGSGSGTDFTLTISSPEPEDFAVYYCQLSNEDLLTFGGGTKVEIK
a: 956000

q: Look up kon for this binder: MH10 (antibody, human IgG4, V domains shown, Deimmunized MH5 derivative, human IgG4(S228P)/Ckappa IgG) VH: QVQLVQSGAEVKKPGSSVKVSCKASGYTFSSNYMIWVRQAPGQGLEWMGDINPYNGGANYAQKFQGRVTITADESTSTAYMELSSLRSEDTAVYYCAREGPYFSNLYVMDYWGQGTLVTVSS VL: EIVLTQSPATLSLSPGERATLSCRASQSVSYEGENYLNWYQQKPGQAPRSAIYAASNRATGIPARFSGSGSGTDFTLTISSPEPEDFAVYYCQLSNEDLLTFGGGTKVEIK
a: 705000
